# Tested on: SF-295
# Assay Explanation: NCI-60 SRB assay, SF-295 (CNS Cancer)
# Format: cell-based, human
# Experimental Conditions: 10 µM, 48 h
For each of the compounds below, state its Mean G% - G%.

Request: Query (compound): C[C@@H]1NC(c2ccc(Br)cc2)=Nc2nc3ccccn3c2C1=O ; field requested: Mean G% - G%
Response: 13,36%

Request: Can you handle C[C@@H]1NC(c2ccc(N=[N+]=[N-])cc2)=Nc2nc3ccccn3c2C1=O next?
Response: -8,18%

Request: Entry C[C@@H]1NC(c2csc3ccccc23)=Nc2nc3ccccn3c2C1=O please
Response: -8,66%

Request: Record: [N-]=[N+]=NCCCC[C@@H]1NC(c2ccc(Br)cc2)=Nc2nc3ccccn3c2C1=O
Response: -4,02%

###

Provide the recorded Mean G% - G% for the entries that follow.
# Test system: SF-539
# Assay Explanation: NCI-60 SRB assay, SF-539 (CNS Cancer)
# Assay type: cell-based, human
# Experimental Conditions: 10 µM, 48 h

Request: Fill in: Mean G% - G% of [N-]=[N+]=NCCCC[C@@H]1NC(c2ccc(Br)cc2)=Nc2nc3ccccn3c2C1=O is ___
Response: -6,24%

Request: // repeat for C[C@@H]1NC(c2ccc(Br)cc2)=Nc2nc3ccccn3c2C1=O and report
Response: -20,40%

Request: C[C@@H]1NC(c2ccc(N=[N+]=[N-])cc2)=Nc2nc3ccccn3c2C1=O
Response: -2,57%

Request: Okay, and C[C@@H]1NC(c2csc3ccccc23)=Nc2nc3ccccn3c2C1=O ?
Response: -1,87%

###

# Tested on: SK-OV-3
# Assay Explanation: NCI-60 SRB assay, SK-OV-3 (Ovarian Cancer)
# Type: cell-based, human
# Experimental Conditions: 10 µM, 48 h, growth vs untreated control
Experimental Endpoint: G%

Request: Which G% is reported for this compound? C[C@@H]1NC(c2csc3ccccc23)=Nc2nc3ccccn3c2C1=O [Compound 8]
Response: 67,29%

Request: Okay, and C[C@@H]1NC(c2ccc(Br)cc2)=Nc2nc3ccccn3c2C1=O [JMV5038] ?
Response: 72,02%

Request: Now this one: [N-]=[N+]=NCCCC[C@@H]1NC(c2ccc(Br)cc2)=Nc2nc3ccccn3c2C1=O [Compound 16]
Response: 85,99%

Request: Another: C[C@@H]1NC(c2ccc(N=[N+]=[N-])cc2)=Nc2nc3ccccn3c2C1=O [Compound 5]
Response: 86,45%

###

# Tested on: NCI/ADR-RES
# Assay Explanation: NCI-60 SRB assay, NCI/ADR-RES (Ovarian Cancer);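 note: mean growth across the NCI-60 panel minus this line's growth with positive meaning more sensitive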
# Assay type: cell-based, human
# Experimental Conditions: 10 µM, 48 h
Experimental Endpoint: Mean G% - G%

Request: # input compound: C[C@@H]1NC(c2ccc(Br)cc2)=Nc2nc3ccccn3c2C1=O [JMV5038] ; wanted: its Mean G% - G%
Response: 14,87%

Request: Now consider C[C@@H]1NC(c2csc3ccccc23)=Nc2nc3ccccn3c2C1=O [Compound 8] .
Response: -2,84%

Request: Entry C[C@@H]1NC(c2ccc(N=[N+]=[N-])cc2)=Nc2nc3ccccn3c2C1=O [Compound 5] please
Response: 11,92%

Request: Please give the result for [N-]=[N+]=NCCCC[C@@H]1NC(c2ccc(Br)cc2)=Nc2nc3ccccn3c2C1=O [Compound 16] too.
Response: -9,49%

###

# Test system: SF-268
# Assay Explanation: NCI-60 SRB assay, SF-268 (CNS Cancer)
# Assay type: cell-based, human
# Experimental Conditions: 10 µM, 48 h
Task for the reader: assign each of the following compounds its reported Mean G% - G%.

Request: Could you share which Mean G% - G% value was measured for C[C@@H]1NC(c2csc3ccccc23)=Nc2nc3ccccn3c2C1=O ?
Response: 8,82%

Request: And C[C@@H]1NC(c2ccc(N=[N+]=[N-])cc2)=Nc2nc3ccccn3c2C1=O ?
Response: -12,35%

Request: // same read-out, input: [N-]=[N+]=NCCCC[C@@H]1NC(c2ccc(Br)cc2)=Nc2nc3ccccn3c2C1=O
Response: 1,04%

Request: Now this one: C[C@@H]1NC(c2ccc(Br)cc2)=Nc2nc3ccccn3c2C1=O
Response: -29,20%

###

# Tested on: NCI-H226
# Assay Explanation: NCI-60 SRB assay, NCI-H226 (NSCLC)
# Format: cell-based, human
# Experimental Conditions: 10 µM, 48 h, growth vs untreated control
Experimental Endpoint: G%

Request: Find the recorded G% belonging to C[C@@H]1NC(c2csc3ccccc23)=Nc2nc3ccccn3c2C1=O and report it.
Response: 72,24%

Request: Another: C[C@@H]1NC(c2ccc(Br)cc2)=Nc2nc3ccccn3c2C1=O
Response: 68,28%

Request: Proceed to C[C@@H]1NC(c2ccc(N=[N+]=[N-])cc2)=Nc2nc3ccccn3c2C1=O
Response: 89,14%

Request: Let us now turn to [N-]=[N+]=NCCCC[C@@H]1NC(c2ccc(Br)cc2)=Nc2nc3ccccn3c2C1=O
Response: 88,19%

###

Field: Mean G% - G%. Provide a value for each of the compounds that follow.
# System: MDA-MB-435
# Assay Explanation: NCI-60 SRB assay, MDA-MB-435 (Melanoma);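 note: mean growth across the NCI-60 panel minus this line's growth with positive meaning more sensitive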
# Type: cell-based, human
# Experimental Conditions: MDA-MB-435; 10 µM, 48 h, SRB

Request: Looking for the measured Mean G% - G% of C[C@@H]1NC(c2csc3ccccc23)=Nc2nc3ccccn3c2C1=O , can you help?
Response: -0,17%

Request: Now give it for [N-]=[N+]=NCCCC[C@@H]1NC(c2ccc(Br)cc2)=Nc2nc3ccccn3c2C1=O too.
Response: -13,77%

Request: Another compound to look at: C[C@@H]1NC(c2ccc(Br)cc2)=Nc2nc3ccccn3c2C1=O
Response: 67,26%

Request: Repeat for the following compound: C[C@@H]1NC(c2ccc(N=[N+]=[N-])cc2)=Nc2nc3ccccn3c2C1=O
Response: 72,64%
